# Read-out: ABC Transporter (ABCB1), ABCB1 (gene 5243)
# measurement.notes: LTEA_HepaRG_ABCB1: Life Technologies and Expression Analysis (LTEA) Assay for ABC Transporter (ABCB1) using HepaRG (AID 2283460)
# conditions.used: mRNA level, 48 h; actives raise or lower the signal
# Method: LTEA_HepaRG is a cell based, multiplexed-readout assay that uses HepaRG, a human liver cell line, with measurements taken at 48 hours after chemical dosing on a 96-well plate.LTEA_HepaRG_ABCB1 is one of 102 assay component(s) measured in the LTEA HepaRG cell culture assay. It is a marker of Steatosis/NR mediated transport.Data from the assay component LTEA_HepaRG_ABCB1 was analyzed into 1 endpoint. […]
Calls of active or inactive are those of the source. The calls were made as follows: active = hit-call score of the fitted dose curve at least 0.9, where 1 is the maximum; inactive = score below 0.9.
Respond using exactly one of the listed classes: active, inactive

compound	assigned.category
COC(=O)c1c(C(F)F)nc(C(F)(F)F)c(C2=NCCS2)c1CC(C)C	inactive
COP(=O)(OC)O/C(C)=C/C(=O)N(C)C	inactive
O=C1C2CC=CCC2C(=O)N1SC(Cl)(Cl)Cl (configuration not stated)	inactive

Called result for CCSC(=O)N1CCCCCC1
inactive

Called result for CN/C(=N\[N+](=O)[O-])NCc1cnc(Cl)s1
inactive
